growth inhibition: recorded values
Experiment: NCI Yeast Anticancer Drug Screen. Data for the cln2 rad14 strain (AID 165);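 further: 0% = growth equal to vehicle treated cultures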
Conditions: S. cerevisiae cln2 rad14 strain, at 50.0 µM, stronger effect = higher value
This is part of a sample that, as a whole, favours compounds with a hit. Of some 79,000 tested, about 15% had one in any assay.
measurement.kind: growth inhibition (%)

compound	readout.number
CNc1nc2c(C)ccc3nc(N(C)C)nc-3c2n1C	16.4
CCC(=O)Nc1cc([N+](=O)[O-])cc([N+](=O)[O-])c1	-32.5
CC1(C)COC(CCl)OC1	-16.5
CC(=O)/C=C\c1ccc(-c2ccccc2)cc1	-0.6
NC(CCc1ccc2c(c1)OCO2)C(=O)O (stereo not given)	-47
COc1ccc2c(c1)c1cc(OC)ccc1n2CCCCOc1ccc(-c2c3ccccc3c(-c3ccc(OCCCCn4c5ccc(OC)cc5c5cc(OC)ccc54)cc3)c3ccccc23)cc1	23.9
O=C1CSC(c2ccc(Br)cc2)N1c1nncs1 (stereo not given)	-9.95
N#CCCN(CCC#N)c1ccc(/C=C2\N=C(COc3ccc(Cl)cc3Cl)OC2=O)cc1	0.7
COC(=O)[C@H]1C=C[C@@H](C)n2c(=O)c3cc4ccccc4cc3c(=O)n21	-7.95
C1OC2OC3OCOC3C2O1 (stereo not given)	-58.2
CCc1c(Cc2[nH]c(Cc3[nH]c(C=O)c(C)c3CC)c(CC)c2CC)[nH]c(C=O)c1C	-45.9
C1CCC2(CC1)SCCS2	-48.9
c1ccc2c(c1)nn1c3ccc4nonc4c3[n-][n+]21	13.2
O=COCCc1ccccc1	5.4
N#Cc1cccc(C2SCc3nc4ccccc4n32)c1 (stereo not given)	23.1
Cc1cccc(NC(=O)CCl)c1C	11.8
NC(=O)N/N=C/c1ccc2oc3ccccc3c2c1	16.5
CC(=O)N(C)c1ccc(Nc2cc(S(=O)(=O)O)c(N)c3c2C(=O)c2ccccc2C3=O)cc1	-13.8
O=C(O)C1C(C(=O)O)C2C3C4C1C1C2C3C41 (stereo not given)	-21.9
CCCCC1SCC(=O)N1c1nncs1 (stereo not given)	-3.8
NC(N)=N/N=C/c1c(-c2ccc(Cl)cc2)nc2n1CCS2	-10.9
CC(C)(C)c1cc(-c2c3nc(c(-c4cc(C(C)(C)C)cc(C(C)(C)C)c4)c4ccc([nH]4)c(-c4cc(C(C)(C)C)cc(C(C)(C)C)c4)c4nc(c(-c5cc(C(C)(C)C)cc(C(C)(C)C)c5)c5ccc2[nH]5)C=C4)C=C3)cc(C(C)(C)C)c1	23.3
Cc1ccccc1C1=CCCCCC1	0.75
Cc1ncc(CSc2ccccc2N)c(CO)c1O	48.2
C[C@@H]1CC[C@@]2(C)C(C(=O)O)=CCCC2[C@@]1(C)CC(=O)c1ccoc1 (stereo not given in full)	-17.1
Cn1ccccc1=O	-56.5
O=C1Cc2c(-c3ccccc3)cc(-c3ccccc3)nc2-c2ccccc2N1	25.7
O=C(O)CC(=O)Nc1cc([N+](=O)[O-])ccc1OCc1ccccc1	-14.7
CC(=O)NC1CCCC(CC2CCCCC2)C1 (stereo not given)	-56
O=NC1CC=CC1Cl (stereo not given)	9.5
CCC1c2c(cc(=O)[nH]c2O)C(=O)N1Cc1ccccc1 (stereo not given)	4.25
CC(=O)OCC1OC(n2nc(C#N)c(C#N)n2)C(OC(C)=O)C1OC(C)=O (stereo not given)	8.05
O=S(=O)(O)c1cc2c3ccccc3ccc2c2ccccc12	-15.5
CC(C)(Cc1ccc(Cl)cc1)NC(N)=O	3.1
c1ccc(CSc2nc3ccccc3nc2-c2cccs2)cc1	-1.85
